Provenance of the data: ChEMBL document CHEMBL4392822

Biological target: Thiosulfate sulfurtransferase (Homo sapiens, UniProt Q16762)
Sequence (Q16762 whole entry): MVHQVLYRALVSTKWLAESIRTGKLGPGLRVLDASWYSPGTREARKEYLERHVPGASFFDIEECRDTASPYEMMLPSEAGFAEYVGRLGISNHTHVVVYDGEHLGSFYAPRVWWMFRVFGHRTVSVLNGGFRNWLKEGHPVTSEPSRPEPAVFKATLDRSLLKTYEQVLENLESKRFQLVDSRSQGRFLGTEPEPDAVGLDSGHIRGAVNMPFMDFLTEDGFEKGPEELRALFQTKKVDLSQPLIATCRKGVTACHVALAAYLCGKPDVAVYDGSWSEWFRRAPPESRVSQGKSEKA
property: pIC50
// field semantics: pIC50 = negative decimal log of concentration (mol/L)

Some solved entries appear below for comparison.
O=c1c(O)c(-c2ccc(O)cc2O)oc2cc(O)cc(O)c12 [MORIN] | 4.24
O=C1C=C2CC3(O)COc4c(ccc(O)c4O)C3=C2C=C1O (centres undefined) [HEMATEIN] | 4.92
CN(C)c1ccc2nc3ccc(=[N+](C)C)cc-3sc2c1 [METHYLENE BLUE] | 5.21

# next compound below
Find the measured pIC50: item Cc1cc(-c2ccc(/N=N/c3ccc4c(S(=O)(=O)O)cc(S(=O)(=O)O)c(N)c4c3O)c(C)c2)ccc1/N=N/c1ccc2c(S(=O)(=O)O)cc(S(=O)(=O)O)c(N)c2c1O [EVANS BLUE] , target or system Thiosulfate sulfurtransferase (Homo sapiens, UniProt Q16762). 5.06

###

Target: E. coli GroEL/ES (Escherichia coli, UniProt P0A6F5)
Sequence (P0A6F5 whole entry, looked up): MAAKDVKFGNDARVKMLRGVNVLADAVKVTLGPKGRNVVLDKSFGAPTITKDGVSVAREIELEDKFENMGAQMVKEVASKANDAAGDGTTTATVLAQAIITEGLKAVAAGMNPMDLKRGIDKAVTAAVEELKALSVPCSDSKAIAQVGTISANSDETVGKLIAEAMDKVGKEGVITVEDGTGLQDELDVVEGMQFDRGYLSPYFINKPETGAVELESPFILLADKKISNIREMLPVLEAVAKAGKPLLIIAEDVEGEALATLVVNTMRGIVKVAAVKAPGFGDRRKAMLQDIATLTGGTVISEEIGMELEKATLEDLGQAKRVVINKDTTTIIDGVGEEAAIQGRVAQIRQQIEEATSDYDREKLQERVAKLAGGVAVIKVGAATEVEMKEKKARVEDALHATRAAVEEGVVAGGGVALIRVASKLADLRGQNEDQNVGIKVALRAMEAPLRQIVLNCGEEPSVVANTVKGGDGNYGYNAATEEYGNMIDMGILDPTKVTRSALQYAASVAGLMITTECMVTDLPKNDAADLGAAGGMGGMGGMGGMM
The reader will find reported IC50 values listed item by item below.
State the answer as a number, implicitly in µM.

CC[C@H](C)[C@H]1O[C@]2(C=C[C@@H]1C)C[C@@H]1C[C@@H](C/C=C(\C)[C@@H](O[C@H]3C[C@H](OC)[C@@H](O[C@H]4C[C@H](OC)[C@@H](O)[C@H](C)O4)[C@H](C)O3)[C@@H](C)/C=C/C=C3\CO[C@@H]4[C@H](O)C(C)=C[C@@H](C(=O)O1)[C@]34O)O2 | 9.8

Here is the next item to consider.
Need IC50 of CCCCCCCCCCCCCCCCC(C(=O)O)C(O)(CC(=O)O)C(=O)O (stereo unspecified) , thanks. 3.5

###

Reported values of IC50 for individual entries
Molecular target: Chaperonin GroEL (Escherichia coli (strain K12), UniProt P0A6F5);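 also: inhibition of GroEL ATPase activity with ATP as substrate, 60 min incubation, spectrometric read-out, recombinant enzyme produced in Escherichia coli DH5alpha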
Sequence (P0A6F5 whole entry): as the sequence (P0A6F5 whole entry, looked up) above

CC1(C)CCC2=C(O1)c1ccccc1C(=O)C2=O | > 250 µM
Cc1ccc(C(=O)Nc2ccc(S(=O)(=O)O)c3cc(S(=O)(=O)O)cc(S(=O)(=O)O)c23)cc1NC(=O)c1cccc(NC(=O)Nc2cccc(C(=O)Nc3cc(C(=O)Nc4ccc(S(=O)(=O)O)c5cc(S(=O)(=O)O)cc(S(=O)(=O)O)c45)ccc3C)c2)c1 | > 250 µM
O=C(O)C1=CC(=C(c2ccc(O)c(C(=O)O)c2)c2ccc(O)c(C(=O)O)c2)C=CC1=O | > 250 µM

# get_value(readout= IC50, system= Chaperonin GroEL (Escherichia coli (strain K12), UniProt P0A6F5)) for O=C(/C=C/c1ccc(O)cc1)c1ccccc1 [4-HYDROXYCHALCONE] > 250 µM

Write down the reported IC50 of CC1=C(/C=C/C(C)=C/C=C/C(C)=C/C(=O)O)C(C)(C)CCC1 , test system: Chaperonin GroEL (Escherichia coli (strain K12), UniProt P0A6F5). > 250 µM

// fetch Chaperonin GroEL (Escherichia coli (strain K12), UniProt P0A6F5) IC50 for CC1=NCCc2c1[nH]c1cc(O)ccc21 > 250 µM

Lab note: need IC50 with Chaperonin GroEL (Escherichia coli (strain K12), UniProt P0A6F5) for entry O=C(/C=C/c1ccccc1)c1ccc(O)cc1 [4'-HYDROXYCHALCONE] , please look it up. > 250 µM

Lab note: need IC50 with Chaperonin GroEL (Escherichia coli (strain K12), UniProt P0A6F5) for entry CCCCCCCCCc1ccc(O)cc1 , please look it up. > 250 µM

###

Reported pIC50 by item:
Biological target: Thiosulfate sulfurtransferase (Homo sapiens, UniProt Q16762);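 also: native rhodanese of unspecified species, enzyme activity read after 45 min by spectrophotometric detection of Fe(SCN)3 colour, IC50 reflects activity reduction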
Sequence (Q16762 whole entry): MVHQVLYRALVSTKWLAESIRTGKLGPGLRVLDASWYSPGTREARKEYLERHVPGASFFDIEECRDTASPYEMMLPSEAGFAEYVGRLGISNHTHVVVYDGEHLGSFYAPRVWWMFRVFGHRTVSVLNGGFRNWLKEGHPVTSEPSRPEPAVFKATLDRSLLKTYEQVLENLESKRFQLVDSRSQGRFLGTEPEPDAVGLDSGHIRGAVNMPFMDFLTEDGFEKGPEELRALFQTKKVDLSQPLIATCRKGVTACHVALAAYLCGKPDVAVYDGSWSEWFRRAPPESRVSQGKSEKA
Scale explanation: pIC50 corresponds to minus log10 of a concentration expressed in moles per litre.

CCCCCCCCCCCCCCCC(=O)OC[C@H](O)[C@H]1OC(=O)C(O)=C1O [ASCORBYL PALMITATE] | 4.28
CC1(C)CCC2=C(O1)c1ccccc1C(=O)C2=O | 6.92
CC1=CC(=O)c2ccccc2C1=O | 6.00

Request body: readout pIC50, system Thiosulfate sulfurtransferase (Homo sapiens, UniProt Q16762), query CC[n+]1c(-c2ccccc2)c2cc(N)ccc2c2ccc(N)cc21 [HOMIDIUM BROMIDE] . Return the value. 6.08

###

Let's go through some recorded pIC50 values for E. coli GroEL/ES (Escherichia coli) together.
Counter-ions that a name gives are not always drawn.
Please report pIC50 as the negative decimal logarithm of the molar concentration, giving only the number.

C=C(CC)C(=O)c1ccc(OCC(=O)O)c(Cl)c1Cl | 5.33

Write down the reported pIC50 of O=C(O)C1=CC(=C(c2ccc(O)c(C(=O)O)c2)c2ccc(O)c(C(=O)O)c2)C=CC1=O , test system: E. coli GroEL/ES (Escherichia coli). 6.24

Which pIC50 is reported with E. coli GroEL/ES (Escherichia coli) for this entry: Cc1cc2nc3c(=O)[nH]c(=O)nc-3n(C[C@H](O)[C@H](O)[C@H](O)COP(=O)(O)O)c2cc1C [RIBOFLAVIN 5'-PHOSPHATE SODIUM] ? 6.11

# get_value(readout= pIC50, system= E. coli GroEL/ES (Escherichia coli)) for CC[n+]1c(-c2ccccc2)c2cc(N)ccc2c2ccc(N)cc21 [HOMIDIUM BROMIDE] 5.62

Field: pIC50 (E. coli GroEL/ES (Escherichia coli)). Entry: CC1=CC(=O)c2ccccc2C1=O 5.60

Short answer please: pIC50, E. coli GroEL/ES (Escherichia coli), entry O=c1c(O)c(-c2ccc(O)cc2O)oc2cc(O)cc(O)c12 5.28

Request: pIC50, test system E. coli GroEL/ES (Escherichia coli), entry CC1=C(/C=C/C(C)=C/C=C/C(C)=C/C(=O)O)C(C)(C)CCC1 4.68

Return pIC50 measured with E. coli GroEL/ES (Escherichia coli) given this molecule: CC(COc1ccccc1)N(CCCl)Cc1ccccc1 (stereo not drawn) [PHENOXYBENZAMINE HYDROCHLORIDE] 3.89

Give pIC50 (E. coli GroEL/ES (Escherichia coli)) of the following molecule: O=c1c(O)c(-c2ccc(O)c(O)c2)oc2c(O)c(O)cc(O)c12 6.41

Tell me reported pIC50 for Cc1cc(C(C#N)c2ccc(Cl)cc2)c(Cl)cc1NC(=O)c1cc(I)cc(I)c1O (stereo not drawn) , tested with E. coli GroEL/ES (Escherichia coli). 5.70

Any idea what pIC50 came out for Cc1cc(-c2ccc(/N=N/c3ccc4c(S(=O)(=O)O)cc(S(=O)(=O)O)c(N)c4c3O)c(C)c2)ccc1/N=N/c1ccc2c(S(=O)(=O)O)cc(S(=O)(=O)O)c(N)c2c1O on E. coli GroEL/ES (Escherichia coli)? 7.06

E. coli GroEL/ES (Escherichia coli) / pIC50 / C=C1CC[C@H](O)C/C1=C/C=C1\CCC[C@]2(C)[C@@H]([C@H](C)/C=C/[C@H](C)C(C)C)CC[C@@H]12 : value? 4.39

So what pIC50 did CCCCCCCCCCCCCCCCC(C(=O)O)C(O)(CC(=O)O)C(=O)O (stereo not drawn) get with E. coli GroEL/ES (Escherichia coli)? 5.05

GET /values?readout=pIC50&system=E. coli GroEL/ES (Escherichia coli)&item= COc1cc(-c2ccc(/N=N/c3ccc4c(S(=O)(=O)O)cc(S(=O)(=O)O)c(N)c4c3O)c(OC)c2)ccc1/N=N/c1ccc2c(S(=O)(=O)O)cc(S(=O)(=O)O)c(N)c2c1O 5.70

###

Target: HSP60/HSP10 (Homo sapiens, UniProt P10809);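 also: His-tagged human HSP60 with HSP10 refolding denatured MDH, read as MDH activity on mesoxalate by malachite green spectrometry, inhibition of refolding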
Sequence (P10809 whole entry): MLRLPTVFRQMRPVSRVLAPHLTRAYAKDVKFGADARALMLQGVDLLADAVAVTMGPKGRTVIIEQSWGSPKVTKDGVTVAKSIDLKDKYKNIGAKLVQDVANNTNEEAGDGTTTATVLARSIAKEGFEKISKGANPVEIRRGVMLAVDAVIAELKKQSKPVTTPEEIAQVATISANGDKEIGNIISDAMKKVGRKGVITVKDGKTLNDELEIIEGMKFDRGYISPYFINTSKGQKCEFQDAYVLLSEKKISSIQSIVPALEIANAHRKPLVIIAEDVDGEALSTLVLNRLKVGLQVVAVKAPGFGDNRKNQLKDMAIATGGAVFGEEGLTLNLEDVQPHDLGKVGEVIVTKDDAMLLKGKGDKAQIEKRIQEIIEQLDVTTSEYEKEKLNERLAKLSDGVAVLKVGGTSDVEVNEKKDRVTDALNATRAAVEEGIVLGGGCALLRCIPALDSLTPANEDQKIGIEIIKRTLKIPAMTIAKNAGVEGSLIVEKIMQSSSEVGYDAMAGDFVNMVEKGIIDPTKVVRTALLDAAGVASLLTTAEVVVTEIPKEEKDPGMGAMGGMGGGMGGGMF
Sequence (P61604 whole entry, further chain): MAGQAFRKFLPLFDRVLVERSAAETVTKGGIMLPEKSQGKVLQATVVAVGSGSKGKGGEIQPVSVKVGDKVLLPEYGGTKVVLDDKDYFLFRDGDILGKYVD
property: log10 IC50 (log10 of the value in µM)
Answers are given as log10 of IC50 in µM.

Illustrative cases are given below, each with its answer.
CC1=CC(=O)c2c(O)cccc2C1=O | 0.80
O=C(/C=C/c1ccccc1)c1ccc(O)cc1 [4'-HYDROXYCHALCONE] | 1.30
O=C(O)C1=CC(=C(c2ccc(O)c(C(=O)O)c2)c2ccc(O)c(C(=O)O)c2)C=CC1=O | 0.51
CC1(C)CCC2=C(O1)c1ccccc1C(=O)C2=O | 0.32
CC1=CC(=O)c2ccccc2C1=O | 1.18

GET /values?readout=log10 IC50&system=HSP60/HSP10 (Homo sapiens, UniProt P10809)&item= Cc1cc2c(C(C)C)c(O)c(O)c(C=O)c2c(O)c1-c1c(C)cc2c(C(C)C)c(O)c(O)c(C=O)c2c1O 0.08

GET /values?readout=log10 IC50&system=HSP60/HSP10 (Homo sapiens, UniProt P10809)&item= O=c1c(O)c(-c2ccc(O)cc2O)oc2cc(O)cc(O)c12 1.04

Field: log10 IC50 (HSP60/HSP10 (Homo sapiens, UniProt P10809)). Entry: CCc1oc2ccccc2c1C(=O)c1cc(Br)c(O)c(Br)c1 0.96
